target: von Willebrand Factor (vWF) (Homo sapiens); experiment: Peptide-Toyopearl affinity column chromatography of Koate; vWF in fractions by ELISA, protein by A280; assay type: binding; parameters: Koate® containing vWF, FVIII, and albumin was a product of Bayer Corp; tissue Bayer Corp. (Clayton, N.C.) Koate; host or cells: plasma-derived concentrate (Koate); conditions: Table 2; 0.1 ml Koate, 1 ml column
No end group written: not given here.
Listed here: items and their measured % vWF by ELISA, flow through.
Hi! Could you send only the number? It should be in %, unit omitted.

Reported % vWF by ELISA, flow through, substance RVRSFY (not fully specified (C-terminus)) : ____
0.09

====

biological target: von Willebrand Factor (vWF) (Homo sapiens, UniProt P04275); assay: Peptide-Toyopearl affinity column chromatography of Koate; vWF in fractions by ELISA, protein by A280; assay type: binding; parameters: Koate® containing vWF, FVIII, and albumin was a product of Bayer Corp; tissue Bayer Corp. (Clayton, N.C.) Koate; host or cells: plasma-derived concentrate (Koate); settings: Table 2; 2% acetic acid eluate
No end group written: not given here.
The threshold is 30%. Values of % vWF by ELISA, acid beneath it are tagged criterion met; values meeting or exceeding it are tagged criterion not met.

RLNSFY (not fully specified (C-terminus)): criterion not met
KLRSFY (not fully specified (C-terminus)): criterion met
NLRSFY (not fully specified (C-terminus)): criterion met

Is % vWF by ELISA, acid of HLRSFY (not fully specified (C-terminus)) strictly below 30%?
criterion not met

Is % vWF by ELISA, acid of QLRSFY (not fully specified (C-terminus)) strictly below 30%?
criterion met

Is % vWF by ELISA, acid of RYRSFY (not fully specified (C-terminus)) strictly below 30%?
criterion not met

====

biological target: von Willebrand Factor (vWF) (Homo sapiens, UniProt P04275); assay: Peptide-Toyopearl affinity column chromatography of Koate; vWF in fractions by ELISA, protein by A280; assay type: binding; design: Koate® containing vWF, FVIII, and albumin was a product of Bayer Corp; tissue Bayer Corp. (Clayton, N.C.) Koate; host or cells: plasma-derived concentrate (Koate); conditions: Table 2; 0.1 ml Koate, 1 ml column, 2% acetic acid peak
No end group written: not given here.
measured quantity: % area of acid peak (%)
Hi! Could you send only the number? It should be in %, unit omitted.

RIRSFY (not fully specified (C-terminus)): 28.0
RVRSFY (not fully specified (C-terminus)): 30.2
RLKSFY (not fully specified (C-terminus)): 25.1
RLQSFY (not fully specified (C-terminus)): 20.1
RFRSFY (not fully specified (C-terminus)): 27.8

Would you kindly look at the next entry?
Reported % area of acid peak, substance RYRSFY (not fully specified (C-terminus)) : ____
27.1

====

Molecular target: von Willebrand Factor (vWF) (Homo sapiens, UniProt P04275)
Assay: Peptide-Toyopearl affinity column chromatography of Koate; vWF in fractions by ELISA, protein by A280
Type: binding
Parameters: Koate® containing vWF, FVIII, and albumin was a product of Bayer Corp; tissue Bayer Corp. (Clayton, N.C.) Koate; host or cells: plasma-derived concentrate (Koate)
Details: Table 2; 0.1 ml Koate, 1 ml column, 2% acetic acid peak
Description: The gel slurry (1 ml wet gel mixed with 2 ml degassed PBS and 1 M sodium chloride buffer) was transferred into a packing device (from PerSeptive Biosystems, Framingham, Mass.) and packed into a PEEK column (0.75 cm×5 cm from Alltech, Deerfield, Ill.) at a flow rate of 8 ml/min. […] Protein concentrations were monitored by A280 absorbance. […]
No end group written: not given here.
measured quantity: % area of acid peak

RLNSFY (not fully specified (C-terminus)): 24.5%
QLRSFY (not fully specified (C-terminus)): 9.2%
HLRSFY (not fully specified (C-terminus)): 26.7%
RLHSFY (not fully specified (C-terminus)): 24.9%
KLRSFY (not fully specified (C-terminus)): 27.1%

Reported % area of acid peak, substance NLRSFY (not fully specified (C-terminus)) : ____
14.8%

====

molecular target: von Willebrand Factor (vWF) (Homo sapiens); assay: Peptide-Toyopearl affinity column chromatography of Koate; vWF in fractions by ELISA, protein by A280; assay type: binding; design: Koate® containing vWF, FVIII, and albumin was a product of Bayer Corp; tissue Bayer Corp. (Clayton, N.C.) Koate; host or cells: plasma-derived concentrate (Koate); settings: Table 2; NaCl gradient eluate
No end group written: not given here.
The threshold is 2%. Values of % vWF by ELISA, salt beneath it are tagged condition met; values meeting or exceeding it are tagged condition not met.

Is % vWF by ELISA, salt of NLRSFY (not fully specified (C-terminus)) strictly below 2%?
condition not met

Is % vWF by ELISA, salt of RLHSFY (not fully specified (C-terminus)) strictly below 2%?
condition not met

Is % vWF by ELISA, salt of RVRSFY (not fully specified (C-terminus)) strictly below 2%?
condition met

Is % vWF by ELISA, salt of KLRSFY (not fully specified (C-terminus)) strictly below 2%?
condition not met

Is % vWF by ELISA, salt of RIRSFY (not fully specified (C-terminus)) strictly below 2%?
condition not met

====

Listed here: items and their measured % vWF by ELISA, acid.
biological target: von Willebrand Factor (vWF) (Homo sapiens, UniProt P04275); assay: Peptide-Toyopearl affinity column chromatography of Koate; vWF in fractions by ELISA, protein by A280; assay type: binding; parameters: Koate® containing vWF, FVIII, and albumin was a product of Bayer Corp; tissue Bayer Corp. (Clayton, N.C.) Koate; host or cells: plasma-derived concentrate (Koate); settings: Table 2; 2% acetic acid eluate
No end group written: not given here.
Hi! Could you send only the number? It should be in %, unit omitted.

Reference set (5 entries):
RVRSFY (not fully specified (C-terminus)): 55.78
RIRSFY (not fully specified (C-terminus)): 44.78
RLHSFY (not fully specified (C-terminus)): 50.72
RLKSFY (not fully specified (C-terminus)): 45.58
RLQSFY (not fully specified (C-terminus)): 50.68

Reported % vWF by ELISA, acid, substance RFRSFY (not fully specified (C-terminus)) : ____
47.96

====

target: von Willebrand Factor (vWF) (Homo sapiens); assay: Peptide-Toyopearl affinity column chromatography of Koate; vWF in fractions by ELISA, protein by A280; assay type: binding; design: Koate® containing vWF, FVIII, and albumin was a product of Bayer Corp; tissue Bayer Corp. (Clayton, N.C.) Koate; host or cells: plasma-derived concentrate (Koate); settings: Table 2; 0.1 ml Koate, 1 ml column
No end group written: not given here.
Listed here: items and their measured % vWF by ELISA, flow through.
Hi! Could you send only the number? It should be in %, unit omitted.

Reference set (10 entries):
KLRSFY (not fully specified (C-terminus)): 1.03
RIRSFY (not fully specified (C-terminus)): 1.92
RFRSFY (not fully specified (C-terminus)): 0.20
RLQSFY (not fully specified (C-terminus)): 0.46
RYRSFY (not fully specified (C-terminus)): 1.65
RLHSFY (not fully specified (C-terminus)): 1.77
NLRSFY (not fully specified (C-terminus)): 19.96
QLRSFY (not fully specified (C-terminus)): 29.45
RLKSFY (not fully specified (C-terminus)): 0.60
HLRSFY (not fully specified (C-terminus)): 0.75

Would you kindly look at the next entry?
Reported % vWF by ELISA, flow through, substance RLNSFY (not fully specified (C-terminus)) : ____
0.26

====

Listed here: items and their measured % vWF by ELISA, salt.
biological target: von Willebrand Factor (vWF) (Homo sapiens); test: Peptide-Toyopearl affinity column chromatography of Koate; vWF in fractions by ELISA, protein by A280; assay type: binding; parameters: Koate® containing vWF, FVIII, and albumin was a product of Bayer Corp; tissue Bayer Corp. (Clayton, N.C.) Koate; host or cells: plasma-derived concentrate (Koate); conditions: Table 2; NaCl gradient eluate
No end group written: not given here.
Hi! Could you send only the number? It should be in %, unit omitted.

Reference set (5 entries):
RLKSFY (not fully specified (C-terminus)): 3.59
RYRSFY (not fully specified (C-terminus)): 0.14
QLRSFY (not fully specified (C-terminus)): 11.69
RFRSFY (not fully specified (C-terminus)): 0.07
RLQSFY (not fully specified (C-terminus)): 0.54

Field: % vWF by ELISA, salt (von Willebrand Factor (vWF) (Homo sapiens)). Entry: RLNSFY (not fully specified (C-terminus))
1.50

Field: % vWF by ELISA, salt (von Willebrand Factor (vWF) (Homo sapiens)). Entry: HLRSFY (not fully specified (C-terminus))
0.28
